- test-target: OCT1 Phe244Ala variant (Homo sapiens, UniProt O15245, F244A)
- method-summary: Uptake screening (transport ratio over empty vector), HEK293 cells overexpressing OCT1 Phe244Ala variant
- Format: cell-based
- Set-up: expressed in transfected cells
- test-parameters: uptake ratio of OCT1 Phe244Ala-overexpressing HEK293 cells over empty vector
Here the recorded Mean_transport_ratio_Phe244Ala is given for each entry.
Please respond with just the number, no unit label.

Mean_transport_ratio_Phe244Ala for O=S(=O)(c1cccc2cnccc12)N1CCCNCC1 [Fasudil] ?
1.171

---

Here the recorded Mean_transport_ratio_WT is given for each entry.
- test-target: OCT1 WT (Homo sapiens, UniProt O15245)
- method-summary: Uptake screening (transport ratio over empty vector), HEK293 cells overexpressing OCT1 WT
- Assay type: cell-based
- Parameters: expressed in transfected cells

- compound: "NC(=Nc1ccccc1)Nc1ccccc1 [Diphenylguanidine]"
  Mean_transport_ratio_WT: 2.037
- compound: "CC[C@@H](CO)NCCN[C@@H](CC)CO [(R,R)-Ethambutol]"
  Mean_transport_ratio_WT: 26.39

Mean_transport_ratio_WT for N=C(N)NC(=O)c1nc(Cl)c(N)nc1N [Amiloride] ?
37.597

Mean_transport_ratio_WT for CN(C)CCc1c[nH]c2ccc(C[C@H]3COC(=O)N3)cc12 [(S)-Zolmitriptan] ?
30.121

Mean_transport_ratio_WT for CN(C)CCc1c[nH]c2ccc(C[C@@H]3COC(=O)N3)cc12 [(R)-Zolmitriptan] ?
34.392

Mean_transport_ratio_WT for CC[C@@H](CO)NCCN[C@@H](CC)CO [(S,S)-Ethambutol] ?
21.59

Mean_transport_ratio_WT for CC[C@H](CO)NCCN[C@@H](CC)CO [(R,S)-Ethambutol] ?
17.35

---

- test-target: OCT1 Phe244Ala variant (Homo sapiens, UniProt O15245, F244A)
- Sequence (O15245 1-554 F244A): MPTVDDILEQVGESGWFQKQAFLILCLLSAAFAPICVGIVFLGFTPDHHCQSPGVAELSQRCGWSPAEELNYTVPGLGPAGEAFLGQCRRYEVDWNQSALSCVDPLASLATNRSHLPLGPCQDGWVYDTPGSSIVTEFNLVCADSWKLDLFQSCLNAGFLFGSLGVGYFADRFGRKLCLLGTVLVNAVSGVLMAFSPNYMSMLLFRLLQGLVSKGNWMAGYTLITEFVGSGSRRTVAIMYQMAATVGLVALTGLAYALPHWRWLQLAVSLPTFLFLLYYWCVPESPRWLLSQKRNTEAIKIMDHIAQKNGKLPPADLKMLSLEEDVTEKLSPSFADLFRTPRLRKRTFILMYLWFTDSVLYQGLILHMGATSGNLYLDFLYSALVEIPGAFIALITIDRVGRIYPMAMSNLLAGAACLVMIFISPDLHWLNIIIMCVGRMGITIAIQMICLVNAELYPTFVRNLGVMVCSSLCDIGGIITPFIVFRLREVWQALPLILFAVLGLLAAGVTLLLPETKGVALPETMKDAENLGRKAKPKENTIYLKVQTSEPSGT
- method-summary: Concentration-dependent uptake kinetics, HEK293 cells overexpressing OCT1 Phe244Ala;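 also: cells exposed to rising substrate concentrations in buffer, intracellular drug measured by HPLC-tandem mass spectrometry, quantified against a standard curve, uptake referenced to empty vector-transfected HEK293 controls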
- test-parameters: uptake kinetics, in words

- molecule: "CC(=O)OC(C)C[N+](C)(C)C (stereo not drawn) [Methacholine, Acetyl-beta-methylcholine]"
  Km, Phe244Ala compared to WT: "higher Km values"
- molecule: "NC(N)=Nc1nc(CSCCC(N)=NS(N)(=O)=O)cs1 [Famotidine]"
  Km, Phe244Ala compared to WT: "higher Km values"
- molecule: "CN1CCN(CC(=O)N2c3ccccc3C(=O)Nc3cccnc32)CC1 [Pirenzepine]"
  Km, Phe244Ala compared to WT: "lower Km values"
- molecule: "CC(CCc1ccc(O)cc1)NCCc1ccc(O)c(O)c1 (centres unmarked) [Dobutamine]"
  Km, Phe244Ala compared to WT: "lower Km values"

---

Here the recorded relative_Phe244Ala_uptake_in% is given for each entry.
- test-target: OCT1 Phe244Ala variant (Homo sapiens, UniProt O15245, F244A)
- method-summary: Uptake screening (transport ratio over empty vector), HEK293 cells overexpressing OCT1 Phe244Ala variant;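 also: stably transfected HEK293 cells, intracellular substrate quantified by HPLC-tandem mass spectrometry in cell lysates, uptake in HBSS+ buffer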
- Format: cell-based
- Set-up: expressed in transfected cells
- test-parameters: Phe244Ala uptake relative to OCT1 WT
Kindly write the number and append the unit.

- compound: "CC[N+](C)(CC)CCOC(=O)C(O)(c1ccccc1)C1CCCCC1 (stereo not shown)"
  relative_Phe244Ala_uptake_in%: "124.905%"
- compound: "NCc1ccc(O)cc1 [Hydroxybenzylamin]"
  relative_Phe244Ala_uptake_in%: "22.795%"
- compound: "COc1cc(CCN)ccc1O"
  relative_Phe244Ala_uptake_in%: "27.805%"

Query relative_Phe244Ala_uptake_in% on OCT1 Phe244Ala variant (Homo sapiens, UniProt O15245, F244A) for CN[C@@H]1CCc2[nH]c3ccc(C(N)=O)cc3c2C1 [R-Frovatriptan]
64.599%

Query relative_Phe244Ala_uptake_in% on OCT1 Phe244Ala variant (Homo sapiens, UniProt O15245, F244A) for C=CCN1CCCC1CNC(=O)c1cc(S(N)(=O)=O)cc(OC)c1OC (stereo not shown) [Veralipride]
478.904%

Query relative_Phe244Ala_uptake_in% on OCT1 Phe244Ala variant (Homo sapiens, UniProt O15245, F244A) for CNCc1ccc(-c2[nH]c3cc(F)cc4c3c2CCNC4=O)cc1
161.437%

Query relative_Phe244Ala_uptake_in% on OCT1 Phe244Ala variant (Homo sapiens, UniProt O15245, F244A) for Cc1nccn1CC1CCc2c(c3ccccc3n2C)C1=O (stereo not shown)
92.867%

Query relative_Phe244Ala_uptake_in% on OCT1 Phe244Ala variant (Homo sapiens, UniProt O15245, F244A) for NCC(O)c1ccc(O)cc1 (stereo not shown)
54.574%

Query relative_Phe244Ala_uptake_in% on OCT1 Phe244Ala variant (Homo sapiens, UniProt O15245, F244A) for [H]/N=C(\N/C(=N/[H])Nc1ccc(Cl)cc1)NC(C)C
103.560%

Query relative_Phe244Ala_uptake_in% on OCT1 Phe244Ala variant (Homo sapiens, UniProt O15245, F244A) for Oc1ccc(CC2NCCc3cc(O)c(O)cc32)cc1 (stereo not shown)
44.661%

---

- test-target: OCT1 WT (Homo sapiens, UniProt O15245)
- method-summary: Uptake screening (transport ratio over empty vector), HEK293 cells overexpressing OCT1 WT;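 also: intracellular substrate levels quantified by HPLC–tandem mass spectrometry after uptake in HBSS+ buffer at 37 °C, stable Flp-In HEK293 lines, fold change versus empty vector–transfected cells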
- Type: cell-based
- Parameters: expressed in transfected cells
- test-parameters: uptake ratio of OCT1 WT-overexpressing HEK293 cells over empty vector
# note: boundary value 9 maps to Not fulfilled; Mean_transport_ratio_WT below it maps to Fulfilled

- compound: "CCOC(=O)c1ccc(OC(=O)CCCCCNC(=N)N)cc1 [Gabexate]"
  test-target: "OCT1 WT (Homo sapiens, UniProt O15245)"
  answer-label: "Fulfilled"
- compound: "CNCCc1c[nH]c2ccc(O)cc12 [N-Methylserotonin]"
  test-target: "OCT1 WT (Homo sapiens, UniProt O15245)"
  answer-label: "Not fulfilled"
- compound: "CNC1(C)C2CCC(C2)C1(C)C (centres unmarked) [Mecamylamine]"
  test-target: "OCT1 WT (Homo sapiens, UniProt O15245)"
  answer-label: "Fulfilled"

Here is the next item to consider.
Is the reported Mean_transport_ratio_WT for COc1cc(CCN)cc(OC)c1OC [Mescaline] strictly below 9?
Fulfilled

---

- test-target: OCT1 WT (Homo sapiens)
- method-summary: Uptake screening (transport ratio over empty vector), HEK293 cells overexpressing OCT1 WT
- Assay type: cell-based
- Design: expressed in transfected cells
- test-parameters: uptake ratio over empty vector, HEK293 cells overexpressing OCT1 WT
measurement-type: Mean_transport_ratio_WT
Please respond with just the number, no unit label.

- compound: "CC[N+](C)(C)c1cccc(O)c1 [Edrophonium]"
  test-target: "OCT1 WT (Homo sapiens)"
  Mean_transport_ratio_WT: 25.947
- compound: "COc1cc(Cc2cnc(N)nc2N)cc(OC)c1OC [Trimethoprim]"
  test-target: "OCT1 WT (Homo sapiens)"
  Mean_transport_ratio_WT: 3.204
- compound: "CN=C(NC#N)NCCSCc1nc[nH]c1C [Cimetidin]"
  test-target: "OCT1 WT (Homo sapiens)"
  Mean_transport_ratio_WT: 2.536

Mean_transport_ratio_WT for NCC(O)c1ccccc1 (stereo not drawn) [Bisnorephedrine] ?
1.295

Mean_transport_ratio_WT for COc1cc2c(cc1OC)-c1c(C)c3ccc(OC)c(OC)c3c[n+]1CC2 [Dehydrocorydaline] ?
9.385

Mean_transport_ratio_WT for c1cnn(C2CCNCC2)c1 [762240-09-5] ?
4.49

---

- test-target: OCT1 Phe244Ala variant (Homo sapiens, UniProt O15245, F244A)
- Sequence (O15245 1-554 F244A): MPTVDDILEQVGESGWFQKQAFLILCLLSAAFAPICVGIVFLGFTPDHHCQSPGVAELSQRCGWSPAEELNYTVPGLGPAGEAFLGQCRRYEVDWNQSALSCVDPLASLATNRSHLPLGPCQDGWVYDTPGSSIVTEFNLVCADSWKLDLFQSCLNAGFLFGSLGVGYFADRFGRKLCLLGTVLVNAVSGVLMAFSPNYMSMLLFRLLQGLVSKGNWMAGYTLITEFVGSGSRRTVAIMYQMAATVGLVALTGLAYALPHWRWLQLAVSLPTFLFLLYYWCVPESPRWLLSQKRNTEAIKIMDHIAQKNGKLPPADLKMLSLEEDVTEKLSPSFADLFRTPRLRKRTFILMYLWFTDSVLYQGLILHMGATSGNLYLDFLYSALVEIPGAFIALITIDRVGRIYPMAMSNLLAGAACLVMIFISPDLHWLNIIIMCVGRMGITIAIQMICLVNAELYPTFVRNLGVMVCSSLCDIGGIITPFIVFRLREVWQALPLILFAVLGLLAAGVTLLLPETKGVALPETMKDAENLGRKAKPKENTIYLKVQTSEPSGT
- method-summary: Uptake screening (transport ratio over empty vector), HEK293 cells overexpressing OCT1 Phe244Ala variant
- Type: cell-based
- Set-up: expressed in transfected cells
- test-parameters: Phe244Ala uptake relative to OCT1 WT
Here the recorded relative_Phe244Ala_uptake_in% is given for each entry.
Field format: number, assumed %, no unit text.

Here's what some known entries look like.
- molecule: "CNCCc1c[nH]c2ccc(O)cc12"
  relative_Phe244Ala_uptake_in% [%]: 24.160
- molecule: "CNC1(C)C2CCC(C2)C1(C)C (stereo not shown)"
  relative_Phe244Ala_uptake_in% [%]: -72.241
- molecule: "CN(C)CCc1c[nH]c2ccc(Cn3cncn3)cc12"
  relative_Phe244Ala_uptake_in% [%]: 26.058
- molecule: "OC(c1ccccc1)(c1ccccc1)C12CC[N+](CCOCc3ccccc3)(CC1)CC2"
  relative_Phe244Ala_uptake_in% [%]: 127.145
- molecule: "[H]/N=C(/N)N/C(=N/[H])NCCc1ccccc1"
  relative_Phe244Ala_uptake_in% [%]: 112.534
- molecule: "CN[C@@H]1CCc2[nH]c3ccc(C(N)=O)cc3c2C1 [Frovatriptan]"
  relative_Phe244Ala_uptake_in% [%]: 43.181

Query relative_Phe244Ala_uptake_in% on OCT1 Phe244Ala variant (Homo sapiens, UniProt O15245, F244A) for CNC[C@H](O)c1cccc(O)c1 [(R)-Phenylephrine]
36.831
